Field: TetR repression strength. Provide a value for each of the sequences that follow.
target: TetR (class B, Tn10) (UniProt P04483); assay: TetR repression strength (sort-seq, GFP reporter) (relative to tetO2 = 1); higher = stronger repression; details: E. coli
Sequence (P04483 whole entry): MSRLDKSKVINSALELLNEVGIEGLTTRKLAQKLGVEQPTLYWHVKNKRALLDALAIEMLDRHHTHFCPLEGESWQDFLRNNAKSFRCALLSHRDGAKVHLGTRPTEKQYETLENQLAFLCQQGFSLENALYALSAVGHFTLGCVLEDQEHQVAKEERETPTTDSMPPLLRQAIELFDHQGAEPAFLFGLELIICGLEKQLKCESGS
The full ranking holds about 18,000 sequences; the median of “TetR repression strength (sort-seq, GFP reporter)” is about 0.23, and the highest 2% start at about 0.68. This excerpt belongs to a sample that is enriched for the highest values.
Answers are plain numbers.

Examples with their reported TetR repression strength follow.
INSERT INTO measurements (seq_text, recorded_endpoint, result_value) VALUES
  ('TCCCTAATAGTGCTTGAGA', 'TetR repression strength', 1.01),
  ('TCCCTAGTAGTTAGGGAGA', 'TetR repression strength', 0.192),
  ('TCCCGTCGAGTTAAGGAGA', 'TetR repression strength', 0.815),
  ('TCCCTTGGAGTGATAGAGA', 'TetR repression strength', 0.384),
  ('TCCCTTTCAGTTTGGGAGA', 'TetR repression strength', 0.925),
  ('TCCCAAATAGTCGTGGAGA', 'TetR repression strength', 0.415);

Dear colleague, could you please provide TetR repression strength for the sequences listed below?
1. TCCCTGGGAGTTAGTGAGA
2. TCCCAATCAGTTAGGGAGA

0.146
0.146

---

molecular target: TetR (class B, Tn10) (UniProt P04483); test: TetR repression strength (sort-seq, GFP reporter) (relative to tetO2 = 1); higher = stronger repression; conditions: E. coli
The full ranking holds about 18,000 sequences; the median of “TetR repression strength (sort-seq, GFP reporter)” is about 0.23, and the highest 2% start at about 0.68. What follows is part of a selection rich in the highest values, with near analogues and random picks from the rest.
Is TetR repression strength at least 0.4? Then criterion met. If not, criterion not met.

INSERT INTO results (seq_text, classification) VALUES
  ('TCCCGATAAGTCAGTGAGA', 'criterion met');

Decide: TetR repression strength of TCCCACAAAGTGGCGGAGA >= 0.4?
criterion not met

---

biological target: TetR (class B, Tn10) (UniProt P04483); assay: TetR repression strength (sort-seq, GFP reporter) (relative to tetO2 = 1); higher = stronger repression; conditions: E. coli
In all, about 18,000 sequences were measured (“TetR repression strength (sort-seq, GFP reporter)”: median about 0.23, highest 2% from about 0.68 on). The full list was thinned out, with the highest values kept by preference.
Label Satisfied for high-side TetR repression strength (at or above 0.5) and Not satisfied for low-side TetR repression strength (below it).

Solved cases (5 shown):
INSERT INTO measurements (seq_text, classification) VALUES
  ('TCCCAATCAGTTATCGAGA', 'Not satisfied'),
  ('TCCCTATCAGTAACAGAGA', 'Satisfied'),
  ('TCCCAATCAGTCATCGAGA', 'Satisfied'),
  ('TCCCGGGTAGTCCGGGAGA', 'Not satisfied'),
  ('TCCCCATCAGTTCCGGAGA', 'Not satisfied');

# check: TetR repression strength of TCCCAGTCAGTTTGCGAGA is greater than or equal to 0.5
Not satisfied

Answer whether TetR repression strength of TCCCTCTAAGTAATAGAGA is greater than or equal to 0.5.
Not satisfied

Kindly determine if TetR repression strength recorded for TCCCTACAAGTCATCGAGA is above or exactly 0.5.
Not satisfied

Would you say TCCCTCTCAGTACTAGAGA shows TetR repression strength at minimum 0.5?
Not satisfied

Confirm if TetR repression strength reported for the sequence TCCCGCCGAGTAGGCGAGA is 0.5 or above.
Not satisfied

Hi, just wondering whether TCCCTATCAGTTCCTGAGA shows TetR repression strength of 0.5 or higher.
Satisfied

Does TetR repression strength meet or surpass 0.5 for TCCCCGGTAGTTTGAGAGA ?
Not satisfied

Can TCCCTCTCAGTAATAGAGA be said to have TetR repression strength at or above 0.5?
Satisfied

---

target: TetR (class B, Tn10); assay: TetR repression strength (sort-seq, GFP reporter) (relative to tetO2 = 1); higher = stronger repression; details: E. coli
Whole data set: some 18,000 sequences, median “TetR repression strength (sort-seq, GFP reporter)” near 0.23, cut for the highest 2% near 0.68. The sample holds the highest values, similar sequences and a random draw of the others, so the mix is not that of the screen.
For each of the sequences below, state its TetR repression strength.

INSERT INTO assay_data (seq_text, recorded_endpoint, result_value) VALUES
  ('TCCCTGTCAGTTATAGAGA', 'TetR repression strength', 0.649),
  ('TCCCCCTAAGTTATAGAGA', 'TetR repression strength', 0.525);

Record TetR repression strength for all entries; do not skip any.
1. TCCCGGCGAGTAGAGGAGA
2. TCCCTCCGAGTAGGCGAGA
3. TCCCTATCAGTGACGGAGA
4. TCCCTCTCAGTGATAGAGA
5. TCCCTCTCAGTTAGAGAGA
6. TCCCGATCAGTGTTAGAGA
7. TCCCAGCGAGTAGACGAGA

[0.248, 0.745, 0.472, 0.866, 0.726, 0.556, 1.03]

---

molecular target: TetR (class B, Tn10) (UniProt P04483); experiment: TetR repression strength (sort-seq, GFP reporter) (relative to tetO2 = 1); higher = stronger repression; details: E. coli
The full ranking holds about 18,000 sequences; the median of “TetR repression strength (sort-seq, GFP reporter)” is about 0.23, and the highest 2% start at about 0.68. For the sample, the highest values were picked, then their nearest neighbours and some sequences at random.
For each entry below, report its TetR repression strength value.
One number for each entry.

Please review the entries below; each comes with its answer.
INSERT INTO results (seq_text, recorded_endpoint, result_value) VALUES
  ('TCCCGGTCAGTGACCGAGA', 'TetR repression strength', 0.715),
  ('TCCCATAGAGTATGGGAGA', 'TetR repression strength', 0.0311),
  ('TCCCGTAGAGTCTCAGAGA', 'TetR repression strength', 0.257),
  ('TCCCGCGCAGTGACCGAGA', 'TetR repression strength', 0.219),
  ('TCCCTCGGAGTGGGAGAGA', 'TetR repression strength', 0.217);

Batch lookup, TetR repression strength per entry.
1. TCCCTGAGAGTTGGTGAGA
2. TCCCTATGAGTGGCCGAGA

[0.164, 0.402]

Consider the following items and state reported TetR repression strength for each.
1. TCCCTCAGAGTTGGTGAGA
2. TCCCTATCAGTGGCCGAGA
3. TCCCCTGCAGTGGGGGAGA

[1.2, 0.724, 0.225]

---

molecular target: TetR (class B, Tn10) (UniProt P04483); test: TetR repression strength (sort-seq, GFP reporter) (relative to tetO2 = 1); higher = stronger repression; details: E. coli
Whole data set: some 18,000 sequences, median “TetR repression strength (sort-seq, GFP reporter)” near 0.23, cut for the highest 2% near 0.68. Many of the other results were omitted from the sample, so the highest values are more common in it than they were.
Recorded TetR repression strength determines the group label, using one: < 0.3; two: ≥ 0.3 and < 0.5; three: ≥ 0.5

Assign a bin to TCCCTATCAGTGCTGGAGA
three

Bin? TCCCTATCAGTGGTGGAGA
two

Form field 'band' for TCCCGGGGAGTTACGGAGA
two

Entry TCCCCGGAAGTTACGGAGA belongs to which category?
two

Textbook exercise: identify the category of the sequence given here, TCCCGTAGAGTCGATGAGA , according to its measured value.
three

Pick a category. Item: TCCCTCAGAGTGTTAGAGA
one

Exercise: read the entry TCCCCATGAGTCGTCGAGA and state which class it falls under.
one

Would you mind sorting TCCCGGGAAGTTACGGAGA into the appropriate category?
three

Any idea which band TCCCCATCAGTGCTGGAGA is in?
one

Band of TCCCGTTGAGTCGATGAGA ?
two

Band assignment needed for TCCCTATCAGTCCCGGAGA please.
two

Determine which band this sequence sits in: TCCCTTTAAGTAAGTGAGA
one

Record TCCCTATCAGTGCCGGAGA — which class?
three

For the record TCCCGGGAAGTTGTGGAGA , report the class its TetR repression strength corresponds to.
three

Which bin should I file TCCCGGGGAGTTGTGGAGA under?
one

Textbook exercise: identify the category of the sequence given here, TCCCTATAAGTCCTCGAGA , according to its measured value.
three

---

molecular target: TetR (class B, Tn10) (UniProt P04483); assay: TetR repression strength (sort-seq, GFP reporter) (relative to tetO2 = 1); higher = stronger repression; conditions: E. coli
In all, about 18,000 sequences were measured (“TetR repression strength (sort-seq, GFP reporter)”: median about 0.23, highest 2% from about 0.68 on). The sample holds the highest values, similar sequences and a random draw of the others, so the mix is not that of the screen.
Recorded Endpoint: TetR repression strength
Answers are plain numbers.

INSERT INTO results (seq_text, assay_target, recorded_endpoint, result_value) VALUES
  ('TCCCCTGGAGTTTGGGAGA', 'TetR (class B, Tn10) (UniProt P04483)', 'TetR repression strength', 0.286),
  ('TCCCTCCCAGTCGCGGAGA', 'TetR (class B, Tn10) (UniProt P04483)', 'TetR repression strength', 0.291),
  ('TCCCGTTAAGTGCGAGAGA', 'TetR (class B, Tn10) (UniProt P04483)', 'TetR repression strength', 0.109),
  ('TCCCTTCTAGTTGGCGAGA', 'TetR (class B, Tn10) (UniProt P04483)', 'TetR repression strength', 0.281),
  ('TCCCGACGAGTACATGAGA', 'TetR (class B, Tn10) (UniProt P04483)', 'TetR repression strength', 0.629),
  ('TCCCTTTTAGTGGTGGAGA', 'TetR (class B, Tn10) (UniProt P04483)', 'TetR repression strength', 0.212);

# per-item lookup of TetR repression strength; items listed below
1. TCCCGTGTAGTAAGGGAGA
2. TCCCGTGGAGTTGACGAGA
3. TCCCGTGTAGTAAGTGAGA
4. TCCCGGTCAGTGGCCGAGA

[0.307, 0.0573, 0.313, 0.523]
